Measured pIC50 by item
Subject of test: ATP-dependent translocase ABCB1 (Homo sapiens)
Sequence (P08183 whole entry): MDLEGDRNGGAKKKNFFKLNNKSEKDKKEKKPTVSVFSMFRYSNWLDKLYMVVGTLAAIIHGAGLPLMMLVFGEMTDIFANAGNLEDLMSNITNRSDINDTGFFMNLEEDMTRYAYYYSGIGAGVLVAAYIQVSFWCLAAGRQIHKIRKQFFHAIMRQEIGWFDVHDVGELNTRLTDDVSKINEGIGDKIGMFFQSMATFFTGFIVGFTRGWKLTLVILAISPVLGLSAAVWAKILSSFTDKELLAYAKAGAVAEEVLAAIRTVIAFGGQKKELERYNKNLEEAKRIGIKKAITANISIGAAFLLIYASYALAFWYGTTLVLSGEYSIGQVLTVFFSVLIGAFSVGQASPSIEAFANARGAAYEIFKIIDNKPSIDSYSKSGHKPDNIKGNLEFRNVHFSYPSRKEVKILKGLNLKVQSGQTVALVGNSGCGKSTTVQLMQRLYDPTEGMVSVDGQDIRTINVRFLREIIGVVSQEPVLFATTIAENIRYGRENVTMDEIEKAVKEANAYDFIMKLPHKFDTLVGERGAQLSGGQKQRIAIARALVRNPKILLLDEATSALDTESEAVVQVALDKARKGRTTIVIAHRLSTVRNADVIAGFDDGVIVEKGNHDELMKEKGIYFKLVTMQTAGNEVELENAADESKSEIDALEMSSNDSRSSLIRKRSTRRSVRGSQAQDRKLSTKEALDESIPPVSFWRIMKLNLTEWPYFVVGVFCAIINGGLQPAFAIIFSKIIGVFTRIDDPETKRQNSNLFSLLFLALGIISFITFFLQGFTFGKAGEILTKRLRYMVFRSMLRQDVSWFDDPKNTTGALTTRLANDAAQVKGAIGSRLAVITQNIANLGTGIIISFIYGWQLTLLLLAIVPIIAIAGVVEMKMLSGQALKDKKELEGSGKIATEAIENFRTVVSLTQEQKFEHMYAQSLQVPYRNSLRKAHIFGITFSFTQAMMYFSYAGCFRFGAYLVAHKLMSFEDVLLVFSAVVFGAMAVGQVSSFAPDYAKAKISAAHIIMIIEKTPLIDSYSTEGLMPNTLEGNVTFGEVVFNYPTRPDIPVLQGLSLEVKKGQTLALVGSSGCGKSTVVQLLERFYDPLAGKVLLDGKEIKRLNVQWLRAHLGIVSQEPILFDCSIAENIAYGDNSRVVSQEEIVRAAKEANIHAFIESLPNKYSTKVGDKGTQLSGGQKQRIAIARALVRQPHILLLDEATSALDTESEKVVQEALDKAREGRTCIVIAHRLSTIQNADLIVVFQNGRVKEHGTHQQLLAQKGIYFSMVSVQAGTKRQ
pIC50: −log10 of the molar value. Where a SMILES comes first, the peptide text is derived from it. [ ]: non-standard residue; d: D form. MeBmt = C/C=C/C[C@@H](C)[C@@H](O)[C@H](NC)C(=O)O; Val(2S-OH) = CC(C)[C@](N)(O)C(=O)O; NMeL = CN[C@@H](CC(C)C)C(=O)O; NMeV = CN[C@H](C(=O)O)C(C)C; Sar = CNCC(=O)O
Metric name: pIC50

[[record]]
compound = "C/C=C/C[C@@H](C)[C@@H](O)[C@H]1C(=O)N[C@@H]([C@@H](C)O)C(=O)N(C)CC(=O)N[C@@H](CC(C)C)C(=O)N[C@@H](CC(C)C)C(=O)N(C)[C@@H](CC(C)C)C(=O)N[C@@H](C)C(=O)N[C@](O)(C(C)C)C(=O)N(C)[C@@H](CC(C)C)C(=O)N[C@@H](CC(C)C)C(=O)N(C)[C@@H](C(C)C)C(=O)N1C (cyclo(A[Val(2S-OH)][NMeL]L[NMeV][MeBmt]T[Sar]LL[NMeL]))"
subject_of_test = "ATP-dependent translocase ABCB1 (Homo sapiens)"
observed_value = 5.37

[[record]]
compound = "C/C=C/C[C@@H](C)[C@@H](O)[C@H]1C(=O)N[C@@H]([C@@H](C)O)C(=O)N(C)CC(=O)N(C)[C@@H](CC(C)C)C(=O)N[C@@H](C(C)C)C(=O)N(C)[C@@H](CC(C)C)C(=O)N[C@@H](C)C(=O)N[C@](O)(C(C)C)C(=O)N(C)[C@@H](CC(C)C)C(=O)N[C@@H](CC(C)C)C(=O)N(C)[C@@H](C(C)C)C(=O)N1C (cyclo(A[Val(2S-OH)][NMeL]L[NMeV][MeBmt]T[Sar][NMeL]V[NMeL]))"
subject_of_test = "ATP-dependent translocase ABCB1 (Homo sapiens)"
observed_value = 5.68

[[record]]
compound = "C/C=C/C[C@@H](C)[C@@H](O)[C@H]1C(=O)N[C@@H]([C@@H](C)O)C(=O)N(C)CC(=O)N(C)[C@@H](CC(C)C)C(=O)N[C@@H](CC(C)C)C(=O)N(C)[C@@H](CC(C)C)C(=O)N[C@@H](C)C(=O)N[C@H](C)C(=O)N(C)[C@@H](CC(C)C)C(=O)N[C@@H](C)C(=O)N(C)[C@@H](C(C)C)C(=O)N1C (cyclo(A[NMeV][MeBmt]T[Sar][NMeL]L[NMeL]A[dA][NMeL]))"
subject_of_test = "ATP-dependent translocase ABCB1 (Homo sapiens)"
observed_value = 4.25

[[record]]
compound = "C/C=C/C[C@@H](C)[C@@H](O)[C@H]1C(=O)N[C@@H]([C@@H](C)O)C(=O)N(C)CC(=O)N(C)[C@@H](CC(C)C)C(=O)N[C@@H](CC(C)C)C(=O)N(C)[C@@H](CC(C)C)C(=O)N[C@@H](C)C(=O)N[C@H](C)C(=O)N(C)[C@@H](CC(C)C)C(=O)N[C@@H](CC(C)C)C(=O)N(C)[C@@H](C(C)C)C(=O)N1C (cyclo(A[dA][NMeL]L[NMeV][MeBmt]T[Sar][NMeL]L[NMeL]))"
subject_of_test = "ATP-dependent translocase ABCB1 (Homo sapiens)"
observed_value = 5.22

